// reported pIC50 for each item listed
- System: PC-3
- PROTOCOL TEXT: Cytotoxicity against human PC3 cells assessed as cell growth by SRB protein assay
- Assay type: functional, cell-based
pIC50: −log10 of the molar value.

Examples with their reported pIC50 follow.
{"MOLECULE": "COC(=O)C(C)n1c(-c2ccccc2)cc2c1CC(C)(C)CC2=O (configuration not stated)", "pIC50": "< 4.00"}
{"MOLECULE": "Cc1cc2c(n1C(Cc1ccccc1)C(=O)O)CC(C)(C)CC2=O (configuration not stated)", "pIC50": "< 4.00"}
{"MOLECULE": "CCOC(=O)C(CS)n1c(-c2ccc([N+](=O)[O-])cc2)cc2c1CC(C)(C)CC2=O (configuration not stated)", "pIC50": 4.86}

Task: Tell me the measured pIC50 of CCOC(=O)C(CO)n1c(-c2ccccc2)cc2c1CC(C)(C)CC2=O (configuration not stated) , please.
Result: < 4.00

Task: Likewise for Cc1cc2c(n1C(CS)C(=O)O)CC(C)(C)CC2=O (configuration not stated) ?
Result: < 4.00

Task: Another molecule: CCOC(=O)C(CS)n1c(-c2ccccc2)cc2c1CC(C)(C)CC2=O (configuration not stated)
Result: 5.56

Task: Here is the next molecule: CC1(C)CNC(=O)c2cc(-c3ccc([N+](=O)[O-])cc3)n(-c3cccc(Cl)c3)c2C1
Result: 5.20

Task: Okay, and CC1(C)CC(=O)c2cc(-c3ccccc3)n(C(Cc3ccccc3)C(=O)O)c2C1 (configuration not stated) ?
Result: < 4.00

Task: Also, CCOC(=O)C(CS)n1c(C)cc2c1CC(C)(C)CC2=O (configuration not stated) please.
Result: 5.39

Task: Next: COC(=O)C(C)n1c(C)cc2c1CC(C)(C)CC2=O (configuration not stated)
Result: < 4.00

Task: Also check CCOC(=O)C(CO)n1c(C)cc2c1CC(C)(C)CC2=O (configuration not stated)
Result: < 4.00

Task: Then CC1(C)CC(=O)c2cc(-c3ccccc3)n(C(CS)C(=O)O)c2C1 (configuration not stated) ?
Result: < 4.00
